remaining at 10 min overview
# measurement-protocol: Metabolic stability in human liver microsomes after 10 mins
# Format: ADME, Microsome
# condition-description: read-out: Stability
assay-endpoint: remaining at 10 min (%)

compound=C[C@@H]1CN(C(=O)c2ccccc2)C[C@H](C)N1C(=O)C(=O)c1c[nH]c2cccc(F)c12 scale_unit=% measured_value=55
compound="CC(C)C1CN(C(=O)C(=O)c2c[nH]c3cccc(F)c23)CCN1C(=O)c1ccccc1 (stereo not given)" scale_unit=% measured_value=63
compound="CC(C)CC1CN(C(=O)c2ccccc2)CCN1C(=O)C(=O)c1c[nH]c2cccc(F)c12 (stereo not given)" scale_unit=% measured_value=38
compound="CC1CN(C(=O)C(=O)c2c[nH]c3cccc(F)c23)CCN1C(=O)c1ccccc1 (stereo not given)" scale_unit=% measured_value=100
compound="CCCC1CN(C(=O)C(=O)c2c[nH]c3cccc(F)c23)CCN1C(=O)c1ccccc1 (stereo not given)" scale_unit=% measured_value=50
compound=C[C@H]1CN(C(=O)c2ccccc2)CCN1C(=O)C(=O)c1c[nH]c2cccc(F)c12 scale_unit=% measured_value=85
compound=C[C@@H]1CN(C(=O)C(=O)c2c[nH]c3cccc(F)c23)C[C@H](C)N1C(=O)c1ccccc1 scale_unit=% measured_value=69
compound=C[C@@H]1CN(C(=O)c2ccccc2)[C@@H](C)CN1C(=O)C(=O)c1c[nH]c2cccc(F)c12 scale_unit=% measured_value=43
compound=C[C@@H]1CN(C(=O)c2ccccc2)CCN1C(=O)C(=O)c1c[nH]c2cccc(F)c12 scale_unit=% measured_value=74
compound=COc1cccc2[nH]cc(C(=O)C(=O)N3CCN(C(=O)c4ccccc4)C[C@H]3C)c12 scale_unit=% measured_value=84
compound="CCC1CN(C(=O)C(=O)c2c[nH]c3cccc(F)c23)CCN1C(=O)c1ccccc1 (stereo not given)" scale_unit=% measured_value=63
compound="CC(C)CC1CN(C(=O)C(=O)c2c[nH]c3cccc(F)c23)CCN1C(=O)c1ccccc1 (stereo not given)" scale_unit=% measured_value=35
compound="CC(C)C1CN(C(=O)c2ccccc2)CCN1C(=O)C(=O)c1c[nH]c2cccc(F)c12 (stereo not given)" scale_unit=% measured_value=59
compound=COc1cccc2[nH]cc(C(=O)C(=O)N3CCN(C(=O)c4ccccc4)CC3)c12 scale_unit=% measured_value=100
compound="CCCC1CN(C(=O)c2ccccc2)CCN1C(=O)C(=O)c1c[nH]c2cccc(F)c12 (stereo not given)" scale_unit=% measured_value=52
compound="CCC1CN(C(=O)c2ccccc2)CCN1C(=O)C(=O)c1c[nH]c2cccc(F)c12 (stereo not given)" scale_unit=% measured_value=55
compound="COc1cccc2[nH]cc(C(=O)C(=O)N3CCN(C(=O)c4ccccc4)CC3C)c12 (stereo not given)" scale_unit=% measured_value=84
compound="CC(C)(C)C1CN(C(=O)c2ccccc2)CCN1C(=O)C(=O)c1c[nH]c2cccc(F)c12 (stereo not given)" scale_unit=% measured_value=68
compound=COc1cccc2[nH]cc(C(=O)C(=O)N3CCN(C(=O)c4ccccc4)C[C@@H]3C)c12 scale_unit=% measured_value=98
compound="C[C@@H]1CN(C(=O)c2ccccc2)[C@H](C)CN1C(=O)C(=O)c1c[nH]c2cccc(F)c12 (relative stereo)" scale_unit=% measured_value=76
compound="CC1CN(C(=O)c2ccccc2)CCN1C(=O)C(=O)c1c[nH]c2cccc(F)c12 (stereo not given)" scale_unit=% measured_value=82
compound=O=C(C(=O)N1CCN(C(=O)c2ccccc2)CC1)c1c[nH]c2cccc(F)c12 scale_unit=% measured_value=98
compound="CCCCCC1CN(C(=O)c2ccccc2)CCN1C(=O)C(=O)c1c[nH]c2cccc(F)c12 (stereo not given)" scale_unit=% measured_value=29
compound="CC(C)(C)C1CN(C(=O)C(=O)c2c[nH]c3cccc(F)c23)CCN1C(=O)c1ccccc1 (stereo not given)" scale_unit=% measured_value=58
compound="CCCCCC1CN(C(=O)C(=O)c2c[nH]c3cccc(F)c23)CCN1C(=O)c1ccccc1 (stereo not given)" scale_unit=% measured_value=45
